system: human spermatozoa; assay: acrosome-reacted (PNA+) sperm after agonist cocktail, percent change vs DMSO (capacitating); higher = more of the measured sperm population than DMSO, for viability, fewer PI-positive (dead) cells than DMSO; conditions: incubation time: 3h; 29.9 µM; capacitating + agonist cocktail 1h
Structures can show the parent of a compound that is named as a salt.
Please enter 1 where acrosome-reacted is greater than or equal to 10%, and 0 where it is lower.

{"compound": "C=C[C@@]1(C)CC(=O)[C@@]2(O)[C@](C)(O1)[C@@H](OC(C)=O)[C@@H](O)C1C(C)(C)CC[C@H](O)[C@@]12C (stereo partly drawn) [Forskolin]", "study.target": "human spermatozoa", "answer.label": 0}
{"compound": "CCOc1ccc(-c2nc(-c3cccc4c3CCC4NCCO)no2)cc1OCC (stereo not drawn) [CYM 5442 hydrchloride]", "study.target": "human spermatozoa", "answer.label": 1}
{"compound": "COc1cn(-c2ccc(-n3cccn3)cc2F)nc(-c2ccnn2-c2ccccc2)c1=O [Tak-063]", "study.target": "human spermatozoa", "answer.label": 1}
{"compound": "CC(C)Cn1c(=O)n(C)c(=O)c2[nH]cnc21 [IBMX]", "study.target": "human spermatozoa", "answer.label": 1}
{"compound": "CCN(CC)C(=S)SSC(=S)N(CC)CC [Disulfiram]", "study.target": "human spermatozoa", "answer.label": 1}
{"compound": "N=C(N)Nc1nc2ccccc2[nH]1 [2-Guanidinobenzimidazole]", "study.target": "human spermatozoa", "answer.label": 0}
{"compound": "Nc1ccc(-c2ccc3ncc4ccc(=O)n(-c5cccc(C(F)(F)F)c5)c4c3c2)cn1 [Torin 2]", "study.target": "human spermatozoa", "answer.label": 1}
{"compound": "CC(=O)N1CCC(C(=O)N(CCCN2CCN(Cc3ccc(F)cc3)CC2)c2ccc(C)c(Cl)c2)CC1 [B07 hydrochloride]", "study.target": "human spermatozoa", "answer.label": 0}

====

tested on: human spermatozoa; assay: total motile sperm, percent change vs DMSO (non-capacitating); higher = more of the measured sperm population than DMSO, for viability, fewer PI-positive (dead) cells than DMSO; conditions: incubation time: 10min incubation, 9.99 µM
experimental.endpoint: total motile sperm (%)

{"compound": "COc1cc(C(=O)N2CCC(N3CCN(C)CC3)CC2)ccc1Nc1ncc2c(n1)N(C)c1ccccc1C(=O)N2C", "study.target": "human spermatozoa", "experimental.endpoint": "total motile sperm", "experimental.value": -2.77}
{"compound": "Cn1c(=O)c2c(-c3ccccc3)n3c(c2n(C)c1=O)[C@H](c1ccc(Br)o1)Oc1ccc(C(=O)O)cc1-3", "study.target": "human spermatozoa", "experimental.endpoint": "total motile sperm", "experimental.value": -0.595}
{"compound": "O=C(c1cccs1)c1no[n+]([O-])c1C(=O)c1cccs1", "study.target": "human spermatozoa", "experimental.endpoint": "total motile sperm", "experimental.value": 1.03}
{"compound": "COc1cc2nc(N(C)CCCNC(=O)C3CCCO3)nc(N)c2cc1OC (stereo unspecified)", "study.target": "human spermatozoa", "experimental.endpoint": "total motile sperm", "experimental.value": -4.58}
{"compound": "N=C(N)Nc1ccc(C(=O)Oc2ccc3cc(C(=N)N)ccc3c2)cc1", "study.target": "human spermatozoa", "experimental.endpoint": "total motile sperm", "experimental.value": -0.692}
{"compound": "COc1ccc(CCCN2CCC(COC(c3ccccc3)c3ccccc3)CC2)cc1", "study.target": "human spermatozoa", "experimental.endpoint": "total motile sperm", "experimental.value": -0.81}

====

# reported progressively motile sperm; entries follow
test system: human spermatozoa; experiment: progressively motile sperm, percent change vs DMSO (non-capacitating); higher = more of the measured sperm population than DMSO, for viability, fewer PI-positive (dead) cells than DMSO; extreme values may be limits of the assay; conditions: incubation time: 10min incubation, 29.9 µM
Structures can show the parent of a compound that is named as a salt.

{"compound": "CCOc1ccccc1OCCN[C@H](C)Cc1ccc(OC)c(S(N)(=O)=O)c1", "output.unit": "%", "progressively motile sperm": 13.4}
{"compound": "CC(C)(C)c1ccc(S(=O)(=O)Nc2ccc(OC(F)(F)F)c(F)c2-c2ccc(C(=O)O)c3ncccc23)cc1F", "output.unit": "%", "progressively motile sperm": 5.16}
{"compound": "CCCCCCCCOc1ccc(-c2noc([C@@H]3CCCN3C(=N)N)n2)cc1C(F)(F)F", "output.unit": "%", "progressively motile sperm": -91.9}
{"compound": "COc1cn(-c2ccc(-n3cccn3)cc2F)nc(-c2ccnn2-c2ccccc2)c1=O", "output.unit": "%", "progressively motile sperm": 27.7}
{"compound": "CNS(=O)(=O)c1ccccc1Nc1nc(Nc2ccc(C3CCN(C)CC3)cc2OC)ncc1Cl", "output.unit": "%", "progressively motile sperm": -92.3}
{"compound": "Nc1nc(Cl)nc2c1ncn2[C@@H]1O[C@H](CO)[C@@H](O)[C@@H]1F", "output.unit": "%", "progressively motile sperm": 19.3}
{"compound": "O=C(O)c1cccnc1Nc1cccc(C(F)(F)F)c1", "output.unit": "%", "progressively motile sperm": 5.93}
{"compound": "CCOC(=O)CSc1nc(=O)c(NCC(=O)OC)n[nH]1", "output.unit": "%", "progressively motile sperm": -0.636}
{"compound": "N=C(N)Nc1nc2ccccc2[nH]1", "output.unit": "%", "progressively motile sperm": 0.263}
{"compound": "Oc1c(Cl)cc(Cl)cc1Sc1cc(Cl)cc(Cl)c1O", "output.unit": "%", "progressively motile sperm": -10.9}
{"compound": "COC(=O)[C@]1(C)CC[C@]2(C)CC[C@]3(C)C4=CC=C5C(=CC(=O)C(O)=C5C)[C@]4(C)CC[C@@]3(C)[C@@H]2C1", "output.unit": "%", "progressively motile sperm": -99.9}
{"compound": "Clc1ccc(C(OCCN2CCCCC2)c2ccccc2)cc1 (stereo not given) [Cloperastine hydrochloride]", "output.unit": "%", "progressively motile sperm": -9.23}
{"compound": "c1ccc2c(c1)SCc1c-2[nH]c2ccccc12", "output.unit": "%", "progressively motile sperm": -99.9}
{"compound": "[O-][S+](c1ccccc1)c1ccc2nnnn2n1 (stereo not given)", "output.unit": "%", "progressively motile sperm": -68.2}
{"compound": "CC(C)Cn1cnc2c(N)nc3ccccc3c21", "output.unit": "%", "progressively motile sperm": 32.7}
{"compound": "CNc1ccc2oc(C[C@H]3O[C@@]4(CC[C@H]3C)O[C@H]([C@H](C)C(=O)c3ccc[nH]3)[C@H](C)C[C@H]4C)nc2c1C(=O)O", "output.unit": "%", "progressively motile sperm": -97.5}
{"compound": "CCN(CC)C(=S)SSC(=S)N(CC)CC", "output.unit": "%", "progressively motile sperm": -100}
{"compound": "CCCCCCOC(=O)[C@]1(O)C[C@@H]2O[C@@]1(C)n1c3ccccc3c3c4c(c5c6ccccc6n2c5c31)C(=O)NC4", "output.unit": "%", "progressively motile sperm": -15.1}
{"compound": "O=c1sn(-c2cccc3ccccc23)c(=O)n1Cc1ccccc1", "output.unit": "%", "progressively motile sperm": 2.42}
{"compound": "O.O.O.OO.OO.[K+].[OH-].[V].c1cnc2c(c1)ccc1cccnc12", "output.unit": "%", "progressively motile sperm": 8.6}
{"compound": "COc1cc2c(cc1OC)-c1c/c(=N\\c3c(C)cc(C)cc3C)n(C)c(=O)n1CC2 [Trequinsin hydrochloride]", "output.unit": "%", "progressively motile sperm": 28.3}
{"compound": "CC(C)C(C(=O)OC(C#N)c1cccc(Oc2ccccc2)c1)c1ccc(Cl)cc1 (stereo not given) [Fenvalerate]", "output.unit": "%", "progressively motile sperm": -13.7}
{"compound": "N=C(N)Nc1ccc(C(=O)Oc2ccc3cc(C(=N)N)ccc3c2)cc1", "output.unit": "%", "progressively motile sperm": 0.269}
{"compound": "COc1ccc2nc([S@@+]([O-])Cc3ncc(C)c(OC)c3C)[nH]c2c1", "output.unit": "%", "progressively motile sperm": 21.1}
{"compound": "CCOCc1nc2c(N)nc3ccccc3c2n1CC(C)(C)O", "output.unit": "%", "progressively motile sperm": -75.7}
{"compound": "Nc1ncnc2c1c(-c1cccc(OCc3ccccc3)c1)cn2[C@H]1C[C@@H](CN2CCC2)C1", "output.unit": "%", "progressively motile sperm": 11.5}
{"compound": "Cn1c(=O)c2c(-c3ccccc3)n3c(c2n(C)c1=O)[C@H](c1ccc(Br)o1)Oc1ccc(C(=O)O)cc1-3", "output.unit": "%", "progressively motile sperm": 14.7}
{"compound": "C=CC[C@@H]1/C=C(\\C)C[C@H](C)C[C@H](OC)[C@H]2O[C@@](O)(C(=O)C(=O)N3CCCC[C@H]3C(=O)O[C@H](/C(C)=C/[C@@H]3CC[C@@H](O)[C@H](OC)C3)[C@H](C)[C@@H](O)CC1=O)[C@H](C)C[C@@H]2OC", "output.unit": "%", "progressively motile sperm": 0.659}
{"compound": "CN(c1ccccc1CNc1nc(Nc2ccc3c(c2)CC(=O)N3)ncc1C(F)(F)F)S(C)(=O)=O", "output.unit": "%", "progressively motile sperm": 16.8}
{"compound": "CC(C)(C)c1ccc(S(=O)(=O)Nc2cnc3[nH]c(C(=O)N[C@H]4CCC[C@H]4O)c(-c4ccccc4)c3c2)cc1", "output.unit": "%", "progressively motile sperm": -14}
